measured target: ErbB4 on neonatal rat cardiomyocytes (rat) (UniProt Q62956)
Sequence (Q62956 26-1308): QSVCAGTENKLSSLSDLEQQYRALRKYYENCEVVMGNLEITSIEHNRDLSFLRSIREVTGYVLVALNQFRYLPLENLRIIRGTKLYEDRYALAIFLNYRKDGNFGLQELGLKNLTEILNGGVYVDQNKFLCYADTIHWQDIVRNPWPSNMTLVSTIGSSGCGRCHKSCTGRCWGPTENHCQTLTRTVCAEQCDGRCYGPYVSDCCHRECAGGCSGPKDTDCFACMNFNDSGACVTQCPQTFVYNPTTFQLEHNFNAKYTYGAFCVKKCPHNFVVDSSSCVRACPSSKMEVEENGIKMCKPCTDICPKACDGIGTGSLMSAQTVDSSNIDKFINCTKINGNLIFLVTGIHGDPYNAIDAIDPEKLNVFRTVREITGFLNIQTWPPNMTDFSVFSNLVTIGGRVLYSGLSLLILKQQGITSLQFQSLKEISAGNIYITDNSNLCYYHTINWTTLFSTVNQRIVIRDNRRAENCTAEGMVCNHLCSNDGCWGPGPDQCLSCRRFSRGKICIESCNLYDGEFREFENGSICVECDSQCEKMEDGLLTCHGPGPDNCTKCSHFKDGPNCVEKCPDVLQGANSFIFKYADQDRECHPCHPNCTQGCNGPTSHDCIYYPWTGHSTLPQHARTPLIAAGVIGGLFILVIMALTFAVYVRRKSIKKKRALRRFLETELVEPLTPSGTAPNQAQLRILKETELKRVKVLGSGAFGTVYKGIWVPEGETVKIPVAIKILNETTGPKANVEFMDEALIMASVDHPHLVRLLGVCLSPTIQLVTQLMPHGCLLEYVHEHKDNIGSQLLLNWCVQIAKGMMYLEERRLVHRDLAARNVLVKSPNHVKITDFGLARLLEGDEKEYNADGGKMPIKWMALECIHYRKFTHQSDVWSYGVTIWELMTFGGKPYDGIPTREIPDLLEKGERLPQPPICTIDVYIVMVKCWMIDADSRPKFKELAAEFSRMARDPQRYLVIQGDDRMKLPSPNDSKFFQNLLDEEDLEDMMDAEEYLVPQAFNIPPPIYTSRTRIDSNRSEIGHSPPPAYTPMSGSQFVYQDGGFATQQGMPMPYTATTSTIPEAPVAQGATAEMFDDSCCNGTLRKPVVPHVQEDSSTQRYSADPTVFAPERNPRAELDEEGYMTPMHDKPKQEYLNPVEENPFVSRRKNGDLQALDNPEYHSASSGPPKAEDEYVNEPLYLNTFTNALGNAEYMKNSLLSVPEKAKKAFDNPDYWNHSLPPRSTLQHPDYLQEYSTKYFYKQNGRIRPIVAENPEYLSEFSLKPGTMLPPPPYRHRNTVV
test method notes: cell-based or functional assay
The binders listed here are annotated with their Selectivity SC/CM.
property label: Selectivity SC/CM

huNRG1(S177-Q237)(NRGE1P)::GG::huFcSEFL2 (Pb) (Fc fusion) SHLVKCAESHKSFCVNGGECFMIEGPSNPSRYLCKCPNEFTGDRCQDFFMASFYKAEELYQGGDKTHTCPPCPAPELLGGPSVFLFPPKPKDTLMISRTPEVTCVVVDVSHEDPEVKFNWYVDGVEVHNAKTKPCEEQYGSTYRCVSVLTVLHQDWLNGKEYKCKVSNKALPAPIEKTISKAKGQPREPQVYTLPPSREEMTKNQVSLTCLVKGFYPSDIAVEWESNGQPENNYKTTPPVLDSDGSFFLYSKLTVDKSRWQQGNVFSCSVMHEALHNHYTQKSLSLSPGK: 229
huNRG1(S177-Q237)(NRGE1O)::GG::huFcSEFL2 (Pb) (Fc fusion) SHLVKCGEKHKSFCVNGGECYMVEGSSIPSRYLCKCPNEFTGDRCQDFFMASFYKAEELYQGGDKTHTCPPCPAPELLGGPSVFLFPPKPKDTLMISRTPEVTCVVVDVSHEDPEVKFNWYVDGVEVHNAKTKPCEEQYGSTYRCVSVLTVLHQDWLNGKEYKCKVSNKALPAPIEKTISKAKGQPREPQVYTLPPSREEMTKNQVSLTCLVKGFYPSDIAVEWESNGQPENNYKTTPPVLDSDGSFFLYSKLTVDKSRWQQGNVFSCSVMHEALHNHYTQKSLSLSPGK: 526
